Please provide measured growth for the entries that follow.
# Tested on: LOX IMVI melanoma
# test_name: NCI-60 one-dose screen, 48 h (100 = growth as untreated, 0 = no growth, -100 = all killed)
# experimental_setup: 10 µM unless noted
The panel holds about 83,000 compounds, 20% with a hit somewhere; the sample as a whole holds those more often.
Give just the number in %; leave the unit off.

Query: Give the reported growth for "NS(=O)(=O)c1ccc(-n2nc(C(=O)N/N=C\c3ccc(F)cc3)cc2-c2ccc(Cl)cc2)cc1" (system: LOX IMVI melanoma).
Response: 90.9

Query: Query the reported growth for LOX IMVI melanoma; item: "C=CCSc1nc2ccccc2cc1/C=N/O"
Response: 85.9

Query: Provide the documented growth with LOX IMVI melanoma as the system for "O=C(O)CN1C(=O)CCC1=O"
Response: 102

Query: Recorded growth for "Cc1ccc(Cl)c(NS(=O)(=O)c2ccc(-c3cnc(C4CC4)o3)cc2)c1" with LOX IMVI melanoma, please?
Response: 33

Query: Please state recorded growth (tested on LOX IMVI melanoma) of "Nc1n[nH]c(-c2cc(Cl)ccc2O)c1-c1ccccc1"
Response: 79.6

Query: Reported growth for LOX IMVI melanoma, given "O=S(=O)(Nc1cccc(Cl)c1)c1ccc(-c2cnc(C3CC3)o2)cc1" ?
Response: 35.4

Query: # get_value(readout= growth, system= LOX IMVI melanoma) for "C=C(C)[C@@H]1CC[C@]2(C)[C@H](CC=C3[C@@H]4CC(C)(C)CC[C@]4(C(N)=O)CC[C@]32C)[C@@]1(C)CCC#N"
Response: 36.9

Query: // fetch LOX IMVI melanoma growth for "Cc1occc1-c1n[nH]c(=S)n1N1C(=O)CSC1=S"
Response: 94.1

Query: Report growth for COc1cc(C2NC(=O)c3ccccc3N2)ccc1OCCCCCOc1c(OC)cc(C2=NOC(c3cc(OC)c(OC)c(OC)c3)C2)cc1OC (centres undefined) tested on LOX IMVI melanoma.
Response: 61

Query: Form field - read-out: growth; system: LOX IMVI melanoma; submitted item: "Cc1cc(NCCCCNc2ccnc3cc(Cl)ccc23)nc(Nc2ccc(C(=O)N3CCCC3)cc2)n1"
Response: -90.9

Query: Missing value: growth, LOX IMVI melanoma, entry "COC1=CC(=O)C[C@@H](C)[C@]12Oc1c(Cl)c(OC)cc(OC)c1C2=O" . Fill in?
Response: 80.8

Query: What measured growth is associated with COc1ccc(C2=NN(C(=O)c3cc(OC)c(OC)c(OC)c3)C(c3ccc(Cl)cc3)C2)cc1OC (centres undefined) on LOX IMVI melanoma?
Response: 31.3

Query: Identify the measured growth of "Cc1cc(NCc2cc(Nc3ccnc4cc(Cl)ccc34)ccc2F)nc(N2CCN(C)CC2)n1" for LOX IMVI melanoma.
Response: -86.6

Query: GET /values?readout=growth&system=LOX IMVI melanoma&item= "COc1ccc(/C=C/c2c(C(=O)/C=C/c3cccs3)c(C)nc3ccccc23)cc1"
Response: 84.5

Query: Given the entry "COc1ccc2oc3c(C)c4c(c(C)c3c2c1)C(=O)N(Cc1ccccc1)C4=O" , what growth was observed with LOX IMVI melanoma?
Response: 94

Query: Could you share what growth was measured for "C=C1C(=O)O[C@H]2[C@H]1CC/C(COC(=O)C(=O)c1c[nH]c3ccc(OC)cc13)=C\CC[C@@]1(C)O[C@@H]21" , tested on LOX IMVI melanoma?
Response: -77.4

Query: // fetch LOX IMVI melanoma growth for "COc1nc(N(C)O)nc(N(C)O)n1"
Response: 14.8

Query: Please state recorded growth (tested on LOX IMVI melanoma) of O=C(c1ccccc1)N1N=C(c2ccccc2)CC1c1nnc2n(Cc3ccccc3)c(=O)c3c4c(sc3n12)CCCC4 (centres undefined)
Response: 91.8

Query: Form: Entry = "Cc1ccc(S(=O)(=O)Oc2cc(OS(=O)(=O)c3ccc(C)cc3)cc(OS(=O)(=O)c3ccc(C)cc3)c2)cc1" | System = LOX IMVI melanoma | growth = ____
Response: 98.1

The values you see were collected from PubChem BioAssay (NCI).
